- testedTarget: human PPARγ2 (Homo sapiens)
- Construct: the amino acids 182 to 505 of human PPARγ2; expressed in transfected cells; host or cells: COS7 cells
- Sequence (P37231 182-505): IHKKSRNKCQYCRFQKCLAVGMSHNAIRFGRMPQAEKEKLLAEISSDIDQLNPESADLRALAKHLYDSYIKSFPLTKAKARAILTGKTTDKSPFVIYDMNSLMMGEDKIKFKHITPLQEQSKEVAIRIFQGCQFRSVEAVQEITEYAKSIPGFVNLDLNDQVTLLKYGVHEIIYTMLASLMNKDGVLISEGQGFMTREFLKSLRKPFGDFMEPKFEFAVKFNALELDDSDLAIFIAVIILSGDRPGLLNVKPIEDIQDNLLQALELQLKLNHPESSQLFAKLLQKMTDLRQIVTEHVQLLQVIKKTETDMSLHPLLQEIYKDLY
- Sequence (P04386 1-147 partner limits assumed): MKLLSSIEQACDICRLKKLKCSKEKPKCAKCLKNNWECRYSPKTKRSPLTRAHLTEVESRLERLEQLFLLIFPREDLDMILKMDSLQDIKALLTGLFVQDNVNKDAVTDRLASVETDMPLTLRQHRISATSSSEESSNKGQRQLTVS
- assayInfo: PPARγ activation activity, Gal4 chimera luciferase transfection assay using COS7 cells
- Format: cell-based
- condition: COS7 cells, Gal4-human PPARγ2 LBD chimera, luciferase reporter, 16 hours; read-out: EC50
pEC50: −log10 of the molar value.

# substanceSmiles, testedTarget, pEC50
data = [
    ("CCCCc1nc(C)n(-c2cc3ccccc3cn2)c(=O)c1Cc1ccc(-c2ccccc2-c2nnn[nH]2)cc1", "human PPARγ2 (Homo sapiens)", 5.58),
    ("CCCCc1nc(C)n(-c2ccon2)c(=O)c1Cc1ccc(-c2ccccc2-c2nnn[nH]2)cc1", "human PPARγ2 (Homo sapiens)", 5.44),
    ("CCCCc1nc(C)n(-c2ccc(C(F)(F)F)cn2)c(=O)c1Cc1ccc(-c2ccccc2-c2nnn[nH]2)cc1", "human PPARγ2 (Homo sapiens)", 5.89),
    ("CCCCc1nc(C)n(-c2ncc(OCCc3ccc(CC)cn3)cn2)c(=O)c1Cc1ccc(-c2ccccc2-c2nnn[nH]2)cc1", "human PPARγ2 (Homo sapiens)", 5.42),
    ("CCCCc1nc(C)n(-c2ncccc2F)c(=O)c1Cc1ccc(-c2ccccc2-c2nnn[nH]2)cc1", "human PPARγ2 (Homo sapiens)", 5.84),
    ("CCCCc1nc(C)n(-c2ccc(OC)cn2)c(=O)c1Cc1ccc(-c2ccccc2-c2nnn[nH]2)cc1", "human PPARγ2 (Homo sapiens)", 5.43),
    ("CCCCc1nc(C)n(-c2ncc(OCCSC)cn2)c(=O)c1Cc1ccc(-c2ccccc2-c2nnn[nH]2)cc1", "human PPARγ2 (Homo sapiens)", 5.41),
    ("CCCCc1nc(C)n(-c2ncc(OCCCC(=O)N(CC)CC)cn2)c(=O)c1Cc1ccc(-c2ccccc2-c2nnn[nH]2)cc1", "human PPARγ2 (Homo sapiens)", 6.85),
]

====

- testedTarget: angiotensin II type 1 receptor (Oryctolagus cuniculus)
- Construct: By using a specimen of isolated rabbit blood vessels
- Sequence (P34976 whole entry): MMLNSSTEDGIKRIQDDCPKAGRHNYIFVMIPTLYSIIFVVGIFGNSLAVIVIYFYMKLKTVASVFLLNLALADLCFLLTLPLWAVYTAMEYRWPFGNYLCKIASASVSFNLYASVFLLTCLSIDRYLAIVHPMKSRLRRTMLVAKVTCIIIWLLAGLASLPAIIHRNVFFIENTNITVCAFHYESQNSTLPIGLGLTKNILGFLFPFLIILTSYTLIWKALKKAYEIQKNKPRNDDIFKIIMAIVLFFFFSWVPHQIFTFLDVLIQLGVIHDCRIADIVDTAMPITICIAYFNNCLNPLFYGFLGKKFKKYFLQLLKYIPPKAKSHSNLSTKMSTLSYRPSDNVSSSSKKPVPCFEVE
- assayInfo: Angiotensin II antagonistic activity in isolated rabbit blood vessels
- condition: angiotensin II (10 nM)-induced contraction of rabbit thoracic aorta ring
pIC50: −log10 of the molar value.
// reported pIC50 for each item listed

# compound, pIC50
measured = [
    ("CCCCc1nc(C)n(-c2cc(C(F)(F)F)ccn2)c(=O)c1Cc1ccc(-c2ccccc2-c2nnn[nH]2)cc1", 6.74),
    ("CCCCc1nc(C)n(-c2ncc(Br)cn2)c(=O)c1Cc1ccc(-c2ccccc2-c2nnn[nH]2)cc1", 7.85),
    ("CCCCc1nc(C)n(-c2ncc(OC(Cc3ccccc3)C(=O)O)cn2)c(=O)c1Cc1ccc(-c2ccccc2-c2nnn[nH]2)cc1 (centres unmarked)", 8.26),
    ("CCCCc1nc(C)n(-c2nnc(C)c(C)n2)c(=O)c1Cc1ccc(-c2ccccc2-c2nnn[nH]2)cc1", 7.60),
    ("CCCCc1nc(C)n(-c2ncc(OCc3nc(-c4ccccc4)oc3C)cn2)c(=O)c1Cc1ccc(-c2ccccc2-c2nnn[nH]2)cc1", 6.47),
    ("CCCCc1nc(C)n(-c2ccc([N+](=O)[O-])cn2)c(=O)c1Cc1ccc(-c2ccccc2-c2nnn[nH]2)cc1", 6.26),
    ("CCCCc1nc(C)n(-c2ccccn2)c(=O)c1Cc1ccc(-c2ccccc2-c2nnn[nH]2)cc1", 8.68),
    ("CCCCc1nc(C)n(-c2ccc(F)cn2)c(=O)c1Cc1ccc(-c2ccccc2-c2nnn[nH]2)cc1", 6.99),
    ("CCCCc1nc(C)n(-c2cccc(Br)n2)c(=O)c1Cc1ccc(-c2ccccc2-c2nnn[nH]2)cc1", 6.40),
    ("CCCCc1nc(C)n(-c2ncc(OC(C)C)cn2)c(=O)c1Cc1ccc(-c2ccccc2-c2nnn[nH]2)cc1", 7.66),
    ("CCCCc1nc(C)n(-c2ncc(OCCCC(=O)NCCC)cn2)c(=O)c1Cc1ccc(-c2ccccc2-c2nnn[nH]2)cc1", 7.85),
]
